# Tested on: STS26T
# PROTOCOL_SUMMARY: drug sensitivity score (DSS, CellTox-Green cytotoxicity, 72 h) (DSS (dimensionless)); higher = more cytotoxic; extreme values may be limits of the assay
Use 3 as the dividing line for drug sensitivity score, with the line itself on the satisfied side and lower values as not satisfied.

Example results:
COMPOUND	LABEL_CLASS
CC(C)(C)c1cnc(CSc2cnc(NC(=O)C3CCNCC3)s2)o1 [SNS-032] (max concentration tested 10000 nM)	satisfied
COC1=CC(c2cc3ccccc3[nH]2)=N/C1=C\c1[nH]c(C)cc1C [Obatoclax] (max concentration tested 10000 nM)	satisfied
CC(=O)O[C@]1(C(C)=O)CC[C@H]2[C@@H]3C=C(C)C4=CC(=O)CC[C@]4(C)[C@H]3CC[C@@]21C [Megestrol] (max concentration tested 10000 nM)	not satisfied

Given the entry Cc1c2oc3c(C)ccc(C(=O)N[C@@H]4C(=O)N[C@H](C(C)C)C(=O)N5CCC[C@H]5C(=O)N(C)CC(=O)N(C)[C@@H](C(C)C)C(=O)O[C@@H]4C)c3nc-2c(C(=O)N[C@@H]2C(=O)N[C@H](C(C)C)C(=O)N3CCC[C@H]3C(=O)N(C)CC(=O)N(C)[C@@H](C(C)C)C(=O)O[C@@H]2C)c(N)c1=O [Dactinomycin] (max concentration tested 1000 nM) , answer whether its drug sensitivity score meets or surpasses 3.
satisfied

Is the recorded value of drug sensitivity score equal to or greater than 3 for this compound? C=CC(=O)N1CCC[C@@H](n2nc(-c3ccc(Oc4ccccc4)cc3)c3c(N)ncnc32)C1 [Ibrutinib] (max concentration tested 1000 nM)
not satisfied

Say whether Cn1cc(CNCC2CCN(c3ncc(C(=O)NO)cn3)CC2)c2ccccc21 [Quisinostat] (max concentration tested 1000 nM) shows drug sensitivity score of 3 or more.
satisfied

Kindly determine if drug sensitivity score recorded for CCN(CC)CCOc1ccc(/C(=C(/Cl)c2ccccc2)c2ccccc2)cc1 [Clomifene] (max concentration tested 10000 nM) is above or exactly 3.
satisfied

Decide: is the reported value of drug sensitivity score for C[C@H]1C=C2C(=O)O[C@H]3CC[C@@H](C1)[C@@]23O [Galiellalactone] (max concentration tested 50000 nM) equal to or greater than 3?
not satisfied

Test whether the compound CNC(=O)c1cc(Oc2ccc(NC(=O)Nc3cc(C(C)(C)C)nn3-c3ccc4ncccc4c3)c(F)c2)ccn1 [Rebastinib] (max concentration tested 1000 nM) records drug sensitivity score of 3 or higher.
not satisfied

Hi, just wondering whether Nc1ncnc2c1nc(Cl)n2[C@@H]1O[C@H](CO)[C@@H](O)[C@H]1O [8-chloro-adenosine] (max concentration tested 50000 nM) shows drug sensitivity score of 3 or higher.
satisfied

Would you say Cc1ccc(NC(=O)c2ccc(CN3CCN(C)CC3)cc2)cc1Nc1nc(-c2cccnc2)cs1 [Masitinib] (max concentration tested 10000 nM) shows drug sensitivity score at minimum 3?
satisfied

====

# Tested on: S1507-2
# PROTOCOL_SUMMARY: % inhibition of CellTiter-Glo viability at highest tested concentration (72 h), relative to DMSO and benzethonium chloride controls; higher = more inhibition
As shown below, each of these molecules has a reported % inhibition value.
Quick reminder: number only, in %, skip the unit.

MOLECULE	VALUE_KIND	OBSERVED_VALUE
Cc1cc2c(C(C)C)c(O)c(O)c(C=O)c2c(O)c1-c1c(C)cc2c(C(C)C)c(O)c(O)c(C=O)c2c1O [AT 101] (max concentration tested 100000 nM)	% inhibition	95.6
Cc1cnc(Nc2ccc(F)cc2Cl)nc1-c1c[nH]c(C(=O)N[C@H](CO)c2cccc(Cl)c2)c1 [VX-11E] (max concentration tested 2500 nM)	% inhibition	40.7

Let's switch to this molecule now.
# % inhibition (molecule: Nc1ncnc2c1c(COc1cccc(Cl)c1)nn2C1CCOCC1 (max concentration tested 10000 nM) ) is 9.42

====

# Tested on: HSC2 (primary human Schwann cells)
# PROTOCOL_SUMMARY: drug sensitivity score (DSS, CellTiter-Glo viability, 72 h) (DSS (dimensionless)); higher = more sensitive; extreme values may be limits of the assay
Output Condition met for drug sensitivity score not less than 2; output Condition not met otherwise.

MOLECULE	LABEL_CLASS
CCN(CCO)CCCOc1ccc2c(Nc3cc(CC(=O)Nc4cccc(F)c4)[nH]n3)ncnc2c1 [AZD1152-HQPA] (max concentration tested 1000 nM)	Condition met

Continue with the molecule presented below.
Hi team, for C[C@@H]1CCN(C(=O)CC#N)C[C@@H]1N(C)c1ncnc2[nH]ccc12 [Tofacitinib] (max concentration tested 5000 nM) , is the recorded drug sensitivity score at or above 2?
Condition not met

====

# Tested on: YST-1
# PROTOCOL_SUMMARY: drug sensitivity score (DSS, CellTiter-Glo viability, 72 h) (DSS (dimensionless)); higher = more sensitive; extreme values may be limits of the assay
VALUE_KIND: drug sensitivity score

Sample records with drug sensitivity score:
COMPOUND	drug sensitivity score
COc1ccc2c(OCc3nnc4ccc(-c5ccccc5)nn34)ccnc2c1 [AMG-208] (max concentration tested 2500 nM)	0
CN[C@@H](C)C(=O)N[C@H]1CN(C(=O)CC(C)C)CC[C@H]2CC[C@@H](C(=O)NC(c3ccccc3)c3ccccc3)N2C1=O [AT-406] (max concentration tested 10000 nM)	0
N#Cc1ccc(COC[C@H]2O[C@@H](n3c(NCc4ccc(Cl)c(Cl)c4)nc4c(N)ncnc43)[C@H](O)[C@@H]2O)cc1 (max concentration tested 10000 nM)	2.63
CC1(COc2ccc3c(c2)ncn3-c2ccc3cccc(N4CCC(N)CC4)c3n2)COC1 [Crenolanib] (max concentration tested 10000 nM)	5.36
CNC(=O)c1c(F)cccc1Nc1nc(Nc2cc3c(cc2OC)CCN3C(=O)CN(C)C)nc2[nH]ccc12 (max concentration tested 2500 nM)	11.8

Reported drug sensitivity score for CN1CCN(CCOc2cc(OC3CCOCC3)c3c(Nc4c(Cl)ccc5c4OCO5)ncnc3c2)CC1 [Saracatinib] (max concentration tested 10000 nM) was 0.09

====

# System: HS-PSS
# PROTOCOL_SUMMARY: % inhibition of CellTiter-Glo viability at highest tested concentration (72 h), relative to DMSO and benzethonium chloride controls; higher = more inhibition
Listed compounds paired with reported % inhibition
Write the answer as a number in %, unit excluded.

Recorded % inhibition (compound COc1cc2c(NC3CCN(C(C)C)CC3)nc(N3CCC(F)(F)CC3)nc2cc1OCCCN1CCCC1 [UNC0642] (max concentration tested 10000 nM) ): 99.3

The compound identified as Nc1nc(Nc2ccc3c(c2)CC[C@@H](N2CCCC2)CC3)nn1-c1cc2c(nn1)-c1ccccc1CCC2 [BGB324] (max concentration tested 10000 nM) registered its % inhibition at 23.7

% inhibition measured on CC1(C)CCC(CN2CCN(c3ccc(C(=O)NS(=O)(=O)c4ccc(NCC5CCOCC5)c([N+](=O)[O-])c4)c(Oc4cnc5[nH]ccc5c4)c3)CC2)=C(c2ccc(Cl)cc2)C1 [Venetoclax] (max concentration tested 1000 nM) = -9.6

====

# Tested on: HSC1 (primary human Schwann cells)
# PROTOCOL_SUMMARY: % inhibition of CellTiter-Glo viability at highest tested concentration (72 h), relative to DMSO and benzethonium chloride controls; higher = more inhibition
# % inhibition listing for each entry below

COMPOUND	OBSERVED_VALUE
CCCc1cc(C)[nH]c(=O)c1CNC(=O)c1cc(-c2ccnc(N3CCN(C)CC3)c2)cc2c1cnn2C(C)C [GSK343] (max concentration tested 10000 nM)	47%
CC(C)N(CCCNC(=O)Nc1ccc(C(C)(C)C)cc1)C[C@H]1O[C@@H](n2cc(Br)c3c(N)ncnc32)[C@H](O)[C@@H]1O [SGC0946] (max concentration tested 10000 nM)	23.1%
CS(=O)(=O)N1CCN(Cc2cc3nc(-c4cccc5[nH]ncc45)nc(N4CCOCC4)c3s2)CC1 [Pictilisib] (max concentration tested 10000 nM)	78.7%
Cc1ccc(C(=O)N(CCCN)[C@@H](c2oc3cc(Cl)ccc3c(=O)c2Cc2ccccc2)C(C)C)cc1 (max concentration tested 100 nM)	7.2%
O=[N+]([O-])c1ccc2c(c1)S(=O)(=O)C=C2 [Stattic] (max concentration tested 50000 nM)	98.5%

Now for another entry.
For reference, reported % inhibition for CCCCCCCCc1ccc(CCC(N)(CO)CO)cc1 [Fingolimod] (max concentration tested 10000 nM) stands at 103%

====

# Tested on: S1507-2
# PROTOCOL_SUMMARY: drug sensitivity score (DSS, CellTox-Green cytotoxicity, 72 h) (DSS (dimensionless)); higher = more cytotoxic; extreme values may be limits of the assay
drug sensitivity score by entry:

# example entries with known answers
COMPOUND	drug sensitivity score
CO[C@H](C(=O)[C@@H](O)[C@@H](C)O)[C@@H]1Cc2cc3cc(O[C@H]4C[C@@H](O[C@H]5C[C@@H](O)[C@H](O)[C@@H](C)O5)[C@@H](O)[C@@H](C)O4)c(C)c(O)c3c(O)c2C(=O)[C@H]1O[C@H]1C[C@@H](O[C@H]2C[C@@H](O[C@H]3C[C@](C)(O)[C@H](O)[C@@H](C)O3)[C@H](O)[C@@H](C)O2)[C@H](O)[C@@H](C)O1 [Plicamycin] (max concentration tested 10000 nM)	10.4
Nc1ccn([C@@H]2O[C@H](CO)[C@@H](O)[C@@H]2O)c(=O)n1 [Cytarabine] (max concentration tested 10000 nM)	0.68

Kindly review the next compound as well.
Item: CS(=O)(=O)c1ccc(C2=C(c3ccccc3)C(=O)OC2)cc1 [Rofecoxib] (max concentration tested 10000 nM) | drug sensitivity score: 0

Ref: the supplement of paper PMC5579334
